- experimental_parameters: in n-propanol, 303.15 K
measurement_label: solubility (mole fraction)
Answers are plain numbers.

Report solubility (mole fraction) for COc1cccc(CCc2ccccc2OCC(CN(C)C)OC(=O)CCC(=O)O)c1.Cl (stereo unspecified) please.
0.000504

---

- experimental_parameters: in THF, 288.15 K
measurement_label: solubility (mole fraction)
One number for each entry.

Look up solubility (mole fraction): COc1cccc(CCc2ccccc2OCC(CN(C)C)OC(=O)CCC(=O)O)c1.Cl (stereo unspecified)
2.24e-05

---

- experimental_parameters: in ethanol, 288.15 K
measurement_label: solubility (mole fraction)
Numbers only.

Which solubility (mole fraction) value is on record for COc1cccc(CCc2ccccc2OCC(CN(C)C)OC(=O)CCC(=O)O)c1.Cl (stereo unspecified) ?
0.00168

---

- experimental_parameters: in methanol, 298.15 K
measurement_label: solubility (mole fraction)
Give bare numbers.

Recorded solubility (mole fraction) for COc1cccc(CCc2ccccc2OCC(CN(C)C)OC(=O)CCC(=O)O)c1.Cl (stereo unspecified) , please?
0.00653
